- Tgt: Dihydropteroate synthase (Escherichia coli K-12, UniProt P0AC13)
- Sequence (P0AC13 whole entry): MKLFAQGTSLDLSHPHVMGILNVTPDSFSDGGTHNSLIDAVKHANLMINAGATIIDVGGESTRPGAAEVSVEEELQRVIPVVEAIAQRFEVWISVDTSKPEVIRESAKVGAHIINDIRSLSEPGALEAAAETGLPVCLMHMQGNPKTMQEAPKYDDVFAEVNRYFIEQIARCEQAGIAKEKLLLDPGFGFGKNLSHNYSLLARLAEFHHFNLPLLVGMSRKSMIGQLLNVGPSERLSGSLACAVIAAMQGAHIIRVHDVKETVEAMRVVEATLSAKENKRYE
- Assay explanation: In vitro inhibition of dihydropteroate synthase from Escherichia coli.
- Study conditions: read-out: I50
Would you mind telling me the reported pIC50 of each entry?
Give bare numbers, as −log10 of the molar value.

I need pIC50 for every entry listed below, if you could help.
1. Nc1nc(O)c(N=O)c(NCCCS(=O)(=O)c2ccccc2)n1
2. Nc1nc(O)c(N=O)c(NCCc2ccccc2)n1
3. Nc1nc(O)c(N=O)c(NCc2ccccc2)n1
4. Nc1nc(O)c(N=O)c(NCCCCCCc2ccccc2)n1
5. Nc1nc(O)c(N=O)c(NCCCOc2ccccc2)n1
6. Nc1nc(O)c(N=O)c(NCCCCc2ccccc2)n1
7. Nc1nc(N)c(N=O)c(=O)[nH]1
8. CNc1nc(N)nc(O)c1N=O

1. 4.74
2. 5.38
3. 4.89
4. 5.05
5. 5.43
6. 5.60
7. 5.24
8. 5.80

---

- Tgt: Dihydropteroate synthase (Escherichia coli K-12)
- Assay explanation: In vitro inhibition of dihydropteroate synthase from Escherichia coli.
- Design: concentration or dose not given beside the values
- Study conditions: concentration not given here
I'd be grateful if you could share measured inhibition for these entries.

The following molecules have reported results that may help.
- CNc1cc(O)nc(N)n1: < 10%
- Nc1nccc(O)n1: < 10%
- Nc1nc(O)c(N=O)c(Nc2ccccc2)n1: < 10%
- Nc1nc(O)c(C=O)c(NCCCCc2ccccc2)n1: < 10%

Here are 2 molecules. What values of inhibition were reported for them?
1. Nc1nc(O)c(N=O)c(O)n1
2. CNc1nc(N)nc(O)c1C=O

1: < 10%; 2: < 10%

---

- Tgt: Dihydropteroate synthase (Escherichia coli K-12)
- Assay explanation: In vitro inhibition of dihydropteroate synthase from Escherichia coli.
- Study conditions: read-out: I50
pIC50: −log10 of the molar value.
Recorded pIC50 split into classes bottom: < 4; middle: ≥ 4 and < 5; top: ≥ 5

• CNc1nc(N)[nH]c(=O)c1[N+](=O)[O-] = top
• CNc1nc(N)nc(O)c1C=O = bottom
• Nc1nc(O)c(N=O)c(NCCCO)n1 = middle
• Nc1nc(O)c(N=O)c(Nc2ccccc2)n1 = bottom
• Nc1nccc(O)n1 = bottom

Exam item: assign CC(C)Nc1nc(N)nc(O)c1N=O to the correct category.
bottom

For the record CNc1cc(O)nc(N)n1 , report the class its pIC50 corresponds to.
bottom

---

- Tgt: Dihydropteroate synthase (Escherichia coli K-12)
- Assay explanation: In vitro inhibition of dihydropteroate synthase from Escherichia coli.
- Study conditions: read-out: I50
Field: pIC50. Provide a value for each of the compounds that follow.
Numbers only, as −log10 of the molar value.

Look over these answered cases.
* Nc1ccc(S(=O)(=O)Nc2nccs2)cc1 [SULFATHIAZOLE] | 5.60
* CCN(CC)c1nc(N)nc(O)c1N=O | 3.71

Consider the additional compound presented here.
Record lookup: for Dihydropteroate synthase (Escherichia coli K-12), what pIC50 belongs to Nc1nc(O)c(N=O)c(NCCCCCc2ccccc2)n1 ?
5.23

---

Record form. Attribute: IC50. Fill in for each entry.
- Tgt: Dihydropteroate synthase (Escherichia coli K-12)
- Assay explanation: In vitro inhibition of dihydropteroate synthase from Escherichia coli.
- Study conditions: read-out: I50
Numbers only, in µM.

• Nc1nc(O)c(N=O)c(NCCCc2ccccc2)n1 = 7.8
• CCNc1nc(N)nc(O)c1N=O = 11
• Cc1cc(NS(=O)(=O)c2ccc(N)cc2)no1 [SULFAMETHOXAZOLE] = 4.7

Please look at the items below and tell me IC50 for each one, in order.
1. Nc1nc(O)c([N+](=O)[O-])c(NCCCCc2ccccc2)n1
2. Nc1nc(O)c(N=O)c(NCCCCCCCc2ccccc2)n1
3. N#Cc1c(O)nc(N)nc1NCCCCc1ccccc1

1. 21
2. 1.4
3. 290
